Assign ED50 to each entry below.
test system: Mus musculus; experiment: Compound was evaluated in vivo for its effective dose at which half of the mice were effected using Nilsen assay (NA) by administering the compound perorally (po); assay type: functional
Output spec: scalar in µmol/kg, unitless text.

Inquiry: ED50 lookup needed for `CO[C@@]12CCC(=O)C[C@@]13CCN(C)[C@@H]2Cc1cccc(O)c13` , thanks.
Reply text: 1

Inquiry: Same question for `COc1ccc2c(c1O)[C@]13CCN(C)[C@H](C2)[C@]1(OC)CCC(=O)C3` please.
Reply text: 5.4

Inquiry: Please do the same for `COc1cccc2c1[C@]13CCN(C)[C@H](C2)[C@]1(OC)CCC(=O)C3` as well.
Reply text: 1.6

Inquiry: Same again, this time with `CO[C@@]12CCC(=O)C[C@@]13CCN(C)[C@@H]2Cc1ccccc13`
Reply text: 2.3

Inquiry: Also `COc1ccc2c(c1OC)[C@]13CCN(C)[C@H](C2)[C@]1(OC)CCC(=O)C3` , if possible.
Reply text: 0.6

* * *

target: Opioid receptor (Rattus norvegicus, UniProt P33533+P34975+P33535); assay type: cell membranes, Brain, Membrane
Just a reminder that ties go to False: only IC50 strictly below 3 nM counts as True.

Inquiry: Strictly below 3 nM: is that where IC50 of `CN1CC[C@]23CC(=O)CC[C@@]2(O)[C@H]1Cc1cccc(O)c13` sits?
Reply text: False

Inquiry: Let us now turn to `CO[C@@]12CCC(=O)C[C@@]13CCN(C)[C@@H]2Cc1cccc(O)c13`
Reply text: True

Inquiry: Now give it for `Br.CO[C@@]12CCC(=O)[C@@H]3Oc4c(O)ccc5c4[C@@]31CCN(C)C2C5` too.
Reply text: True

Inquiry: Now consider `COc1ccc2c(c1OC)[C@]13CCN(C)[C@H](C2)[C@]1(OC)CCC(=O)C3` .
Reply text: True

Inquiry: # iterate: `CN1CC[C@]23CC(=O)CC[C@@]2(O)[C@H]1Cc1ccccc13`
Reply text: False

* * *

system: Mus musculus; assay: Compound was evaluated in vivo for its effective dose at which half of the mice were effected using Nilsen assay (NA) by administering the compound Subcutaneously; format: functional; conditions: sc
ED50 less than 0.3 µmol/kg is y; ED50 greater than or equal to 0.3 µmol/kg is n.

Inquiry: For `Br.CO[C@@]12CCC(=O)[C@@H]3Oc4c(O)ccc5c4[C@@]31CCN(C)C2C5` , is the recorded ED50 below the cut-off of 0.3 µmol/kg?
Reply text: y

Inquiry: `COc1ccc2c(c1OC)[C@]13CCN(C)[C@H](C2)[C@]1(OC)CCC(=O)C3` ?
Reply text: y

Inquiry: Same question, `COc1cccc2c1[C@]13CCN(C)[C@H](C2)[C@]1(OC)CCC(=O)C3` this time
Reply text: y

Inquiry: Same for `CO[C@@]12CCC(=O)C[C@@]13CCN(C)[C@@H]2Cc1ccccc13`
Reply text: y

Inquiry: Can you handle `CO[C@@]12CCC(=O)C[C@@]13CCN(C)[C@@H]2Cc1cccc(O)c13` next?
Reply text: n

Inquiry: And for `CN1CC[C@]23CC(=O)CC[C@@]2(O)[C@H]1Cc1ccccc13` ?
Reply text: n

Inquiry: Item: `COc1ccc2c(c1O)[C@]13CCN(C)[C@H](C2)[C@]1(OC)CCC(=O)C3`
Reply text: n
